B1: Hairpin Ribozyme (parent)
chain: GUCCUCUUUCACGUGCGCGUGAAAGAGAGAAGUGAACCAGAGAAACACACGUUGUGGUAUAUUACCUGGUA

Variants of: B1
TEST_SUMMARY: self-cleavage, relative activity (ratio to wild type); higher = more cleavage; co-transcriptional
READOUT_LABEL: self-cleavage
One number for each entry.

Recorded results for 5 variants are shown here.
Enquiry: Any idea what self-cleavage was measured for GUCCUCUUUCACGUGCGCGUGAAAGAGAAAAGUGAACCAGACAAACACACGUUGUGGUAUAUUACCUGGUA [G29A G42C] ?
Return: 0.0675

Enquiry: Any idea what self-cleavage was measured for GUCCUCUUACACGUGCGCGUGAAAGAGAGAAGUGAACCAGAGAAACACACGUUGAGGUAUAUUACCUGGUA [U9A U55A] ?
Return: 0.225

Enquiry: Any idea what self-cleavage was measured for GUCCUCUUUCACGUGCGCGUGAAAGAGAGAAGUGAACGAGAGACACACACGUUGUGGUAUAUUACCUGGUA [C38G A44C] ?
Return: 0.17

Enquiry: Any idea what self-cleavage was measured for GUCCUCUUUCACGUGCGCGUGAAAGAGAGAAGUGAACCAGAGAAACACACGUUGUGGUAUAUUUCCAGGUA [A64U U67A] ?
Return: 0.206

Enquiry: Any idea what self-cleavage was measured for GUCCUCUUUCACGUGCGCGUGAAAGAGAGUAGUGAACCAGAGAAACACACGUUGUGGUAUAGUACCUGGUA [A30U U62G] ?
Return: 0.108

Could you report self-cleavage for every entry in the following list?
1. GUCCUCUUUAACGUGCGCGUGAAAGAGAGAAGUGAACCAGAGAAACACACGUUAUGGUAUAUUACCUGGUA [C10A G54A]
2. GUCCUCUUUCACGUGCGCGUGAAAGAGAGAAGUGAACCAGAGAAACACACGUUGUGGCAUAUUACCAGGUA [U58C U67A]
3. GUCCUCUGUCACGUGCGCGUGAAAGAGAGAAGUGAACCAGAGAAACACACGUUUUGGUAUAUUACCUGGUA [U8G G54U]

Return:
1. 0.338
2. 0.231
3. 0.37

Could you report self-cleavage for every entry in the following list?
1. GUCCUCUCUCACGUGCGCGUGAAAGAGAGAAGUGAACCAGAGAAACACACGUUGUGGUAUAUAACCUGGUA [U8C U63A]
2. GUCCUCUUUCACGUGCGCGUGAAAGAGAGAGGUGAACCAGAGAAACACACGUUGUGGUAUAUUAACUGGUA [A31G C65A]
3. GUCCUCUCUCACGUGCCCGUGAAAGAGAGAAGUGAACCAGAGAAACACACGUUGUGGUAUAUUACCUGGUA [U8C G17C]
4. GUCCUCUUUCACGUGCGCGUGAAAGAGAGAAGUGAACCAGAGGAACACACGUUGUGGUAUAUUACCUGGCA [A43G U70C]
5. GUGCUCUUUCACGUGCGCGUGAAAGAGAGAAGUGAGCCAGAGAAACACACGUUGUGGUAUAUUACCUGGUA [C3G A36G]
6. GUCCUGUUUCACGUGCGCGUGAAAGAGAGAAGUGAACCAGAGAAACACACGUUGUGGUAUAUCACCUGGUA [C6G U63C]
7. GUCCUCUUUCACGUGCGCGUGAAAGAGAGACGUGAACCAGAGAAACACACGUUGUAGUAUAUUACCUGGUA [A31C G56A]
8. GUCCUCUUUCACGUGCGCGCGAAAGAGAGAAGUGAACCAGAGAAACACUCGUUGUGGUAUAUUACCUGGUA [U20C A49U]

Return:
[0.0901, 0.891, 0.404, 0.19, 0.255, 0.142, 0.148, 0.148]

Could you report self-cleavage for every entry in the following list?
1. GUCCUCUUUCACGUGCGCGUGAACGAGAGAAGUGAACCAGAGAAACACACGUUAUGGUAUAUUACCUGGUA [A24C G54A]
2. GUCCUCUUUCACGGGCGCGUUAAAGAGAGAAGUGAACCAGAGAAACACACGUUGUGGUAUAUUACCUGGUA [U14G G21U]
3. GCCCUCUUUCACGUGCGCGUGAAAGAGAGAAGUGAACCAGAGAAACAUACGUUGUGGUAUAUUACCUGGUA [U2C C48U]
4. GUCCUCUUACACGUGCGCGUGAAAGAGAGAAGUGAACCAGAGAAACACACGUUGUGUUAUAUUACCUGGUA [U9A G57U]
5. GUCCUCUUUCACGUGCGCGUGAAAUAGAGAAGUGAACCAGAGAAACACACCUUGUGGUAUAUUACCUGGUA [G25U G51C]
6. GUCCUCUUUCACGUGCGCGCGAAAGAGAGAAGUGAAACAGAGAAACACACGUUGUGGUAUAUUACCUGGUA [U20C C37A]

Return:
1: 0.547; 2: 0.625; 3: 0.0586; 4: 0.182; 5: 0.589; 6: 0.426
